B1: tRNA (parent)
chain: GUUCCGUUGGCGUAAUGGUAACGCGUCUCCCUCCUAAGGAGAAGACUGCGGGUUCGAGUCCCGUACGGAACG

variants of: B1; assay: yeast fitness relative to wild type (ratio to wild type); higher = fitter; tRNA-Arg(CCU), competitive growth, 37 C, YPD
This sample holds only a part of the variants without activity.
Threshold check on yeast fitness: at or above 0.6 gives T, strictly below gives F.

stdin: Would you say C5G C34U C66U shows yeast fitness at minimum 0.6?
stdout: F

stdin: Would you say A14C A15C U16C C27U C29A C34G G50C shows yeast fitness at minimum 0.6?
stdout: F

stdin: Would you say U2C C30U C31A A40U C49A shows yeast fitness at minimum 0.6?
stdout: F

stdin: Would you say A20U U47G G52C shows yeast fitness at minimum 0.6?
stdout: F

stdin: Would you say A40C A57G C61G shows yeast fitness at minimum 0.6?
stdout: F

stdin: Would you say G38A A40G C49U C66A shows yeast fitness at minimum 0.6?
stdout: F

stdin: Would you say G6A C11A A15G C49G G51C shows yeast fitness at minimum 0.6?
stdout: F

stdin: Would you say G6C A37G C60U A65G shows yeast fitness at minimum 0.6?
stdout: F

stdin: Would you say C11G C24U U28C A42G C60U C62G shows yeast fitness at minimum 0.6?
stdout: F

stdin: Would you say C4G G25A C66A shows yeast fitness at minimum 0.6?
stdout: F

stdin: Would you say C4U C22G G48A C60G shows yeast fitness at minimum 0.6?
stdout: F

stdin: Would you say C4U C34G G41C G56C G58A G63C A65U shows yeast fitness at minimum 0.6?
stdout: F

stdin: Would you say G12C A43G U54C A69C A70C shows yeast fitness at minimum 0.6?
stdout: F

stdin: Would you say C11A A20G C22G C49G G68C A69C shows yeast fitness at minimum 0.6?
stdout: F

stdin: Would you say C5U C22U C27G A65U shows yeast fitness at minimum 0.6?
stdout: F

stdin: Would you say A14C A15U C30U C34G A43G G48C C49U C61U shows yeast fitness at minimum 0.6?
stdout: F

stdin: Would you say C4U A36U A40C A65C shows yeast fitness at minimum 0.6?
stdout: F

stdin: Would you say U53G U59C C66U shows yeast fitness at minimum 0.6?
stdout: F

stdin: Would you say C4U C24A U26A shows yeast fitness at minimum 0.6?
stdout: F

stdin: Would you say G9A C27G U35A shows yeast fitness at minimum 0.6?
stdout: F

stdin: Would you say G9A C22U C30G C61U shows yeast fitness at minimum 0.6?
stdout: F

stdin: Would you say G58C A69U shows yeast fitness at minimum 0.6?
stdout: T

stdin: Would you say C46G U54A shows yeast fitness at minimum 0.6?
stdout: T

stdin: Would you say C11U A20G G48A C55G A57U shows yeast fitness at minimum 0.6?
stdout: F

stdin: Would you say U7A G10A G41C A42U C46A shows yeast fitness at minimum 0.6?
stdout: F

stdin: Would you say C27G G44C A45G shows yeast fitness at minimum 0.6?
stdout: F

stdin: Would you say G17C G23U U28A C31G A65G shows yeast fitness at minimum 0.6?
stdout: F

stdin: Would you say G17A C46G U54C shows yeast fitness at minimum 0.6?
stdout: F

stdin: Would you say C4U C11G C29A U54A A57U shows yeast fitness at minimum 0.6?
stdout: F

stdin: Would you say G52C A57C G63C U64C shows yeast fitness at minimum 0.6?
stdout: F

stdin: Would you say C5G U7C G23A shows yeast fitness at minimum 0.6?
stdout: F

stdin: Would you say C31G A45U G58U C62U shows yeast fitness at minimum 0.6?
stdout: F

stdin: Would you say U2C G23C G51C shows yeast fitness at minimum 0.6?
stdout: F

stdin: Would you say U13C C31A C49G C61G shows yeast fitness at minimum 0.6?
stdout: F

stdin: Would you say G23A U28C U59C C60G shows yeast fitness at minimum 0.6?
stdout: T

stdin: Would you say U28C G51C shows yeast fitness at minimum 0.6?
stdout: F

stdin: Would you say C46A U54C shows yeast fitness at minimum 0.6?
stdout: T

stdin: Would you say U19G C24G shows yeast fitness at minimum 0.6?
stdout: F

stdin: Would you say U2C C5U shows yeast fitness at minimum 0.6?
stdout: T

stdin: Would you say C11U U19G shows yeast fitness at minimum 0.6?
stdout: T

stdin: Would you say C5U G50C U54C shows yeast fitness at minimum 0.6?
stdout: F

stdin: Would you say G9U A70C shows yeast fitness at minimum 0.6?
stdout: T

stdin: Would you say G10C A43U G63C C66A shows yeast fitness at minimum 0.6?
stdout: F

stdin: Would you say G63A A69C shows yeast fitness at minimum 0.6?
stdout: T

stdin: Would you say U7A C11U A36U A57C shows yeast fitness at minimum 0.6?
stdout: F

stdin: Would you say U16C G18A C34G G39A C62G shows yeast fitness at minimum 0.6?
stdout: F

stdin: Would you say C5U U26C A69C shows yeast fitness at minimum 0.6?
stdout: T

stdin: Would you say C27G G44C shows yeast fitness at minimum 0.6?
stdout: F

stdin: Would you say C4G U7G G12C A20U A70U shows yeast fitness at minimum 0.6?
stdout: F

stdin: Would you say U3G C30G A70C shows yeast fitness at minimum 0.6?
stdout: T

stdin: Would you say G23C C33U A57U G67A shows yeast fitness at minimum 0.6?
stdout: F

stdin: Would you say C22U U47A A70G shows yeast fitness at minimum 0.6?
stdout: F

stdin: Would you say C62U A70G shows yeast fitness at minimum 0.6?
stdout: T

stdin: Would you say A65U A70G shows yeast fitness at minimum 0.6?
stdout: T

stdin: Would you say G23C C33G A42U shows yeast fitness at minimum 0.6?
stdout: F

stdin: Would you say A15C C46U G51A C66A shows yeast fitness at minimum 0.6?
stdout: F

stdin: Would you say U8A U53A shows yeast fitness at minimum 0.6?
stdout: F

stdin: Would you say U13A G18C A20C C24U C30U A40C G68C shows yeast fitness at minimum 0.6?
stdout: F

stdin: Would you say G48A G56U G58A shows yeast fitness at minimum 0.6?
stdout: F

stdin: Would you say C4U C66A shows yeast fitness at minimum 0.6?
stdout: T

stdin: Would you say C5U G17A A40U A42C C49A G56A shows yeast fitness at minimum 0.6?
stdout: F

stdin: Would you say G25C A43G C61U shows yeast fitness at minimum 0.6?
stdout: T

stdin: Would you say C4U C31G C55U shows yeast fitness at minimum 0.6?
stdout: F

stdin: Would you say C4A C5U C29G C33U U59G A69C shows yeast fitness at minimum 0.6?
stdout: F

stdin: Would you say U16A G18A C31U A65G shows yeast fitness at minimum 0.6?
stdout: F

stdin: Would you say A57G A70G shows yeast fitness at minimum 0.6?
stdout: T

stdin: Would you say A20U G23A G63A A70U shows yeast fitness at minimum 0.6?
stdout: F
